- PROTOCOL_CONDITIONS: mouse, microsomes
RESULT_TYPE: MLM stability clint (μl/mi/mg protein)

[
  {
    "COMPOUND": "CCCCS(=O)(=O)Nc1ccc2cnn(Cc3ccccc3)c2c1",
    "RECORDED_MEASUREMENT": 241
  },
  {
    "COMPOUND": "CCCCS(=O)(=O)Nc1ccc2cn[nH]c2c1 [5a-2, N-(1H-Indazol-6-yl)butane-1-sulfonamide]",
    "RECORDED_MEASUREMENT": 68.7
  },
  {
    "COMPOUND": "CCC(=O)Nc1ccc2cnn(C)c2c1 [5c-1, N-(1-methyl-1H-indazol-6-yl)propionamide]",
    "RECORDED_MEASUREMENT": 536
  },
  {
    "COMPOUND": "CCCCS(=O)(=O)Nc1ccc2cnn(CCC)c2c1",
    "RECORDED_MEASUREMENT": 921
  },
  {
    "COMPOUND": "CCOC(=O)Nc1ccc2cnn(C)c2c1",
    "RECORDED_MEASUREMENT": 597
  },
  {
    "COMPOUND": "[2H]C([2H])([2H])n1ncc2ccc(NS(=O)(=O)CCCC)cc21",
    "RECORDED_MEASUREMENT": 41.3
  },
  {
    "COMPOUND": "CCCCNC(=S)Nc1ccc2cnn(C)c2c1",
    "RECORDED_MEASUREMENT": 595
  },
  {
    "COMPOUND": "CCCCS(=O)(=O)Nc1ccc2cnn(C(C)C)c2c1",
    "RECORDED_MEASUREMENT": 789
  },
  {
    "COMPOUND": "CCCCS(=O)(=O)Nc1ccc2cnn(CC)c2c1",
    "RECORDED_MEASUREMENT": 536
  }
]
